Test: qHTS assay to identify small molecule antagonists of the estrogen receptor alpha (ER-alpha) signaling pathway using the BG1 cell line in the presence of 0.1 nM 17-beta-estradiol - cell viability counter screen (AID 1259241); also: nearly all actives have a fitted effect of over 40% in size
Conditions: VM7Luc4E2 (BG1) viability, CellTiter-Fluor protease, 22 h, 0.1 nM estradiol agonist added; series mostly up to 92.4 µM
Records with an inconclusive call do not appear. Activity calls are given as the source filed them. Calls follow the shape of the dose curve; as a rule, active = well fitted cell-killing curve with a large enough effect in the repeat runs; inconclusive = weak or mixed curves, or effect the other way; inactive = flat fitted curve, though single readings scatter.
Attribute measured: activity change, negative = cytotoxicity

As a guide, the following entries are already answered.
O=Cc1ccccc1S(=O)(=O)O : inactive
CC(=O)SCC(CC(=O)c1ccc(C)cc1)C(=O)O (configuration not stated) : inactive
CC12CCCC=C1C(=O)OC2=O (configuration not stated) : inactive
NCC1CCC(C(=O)Oc2ccc(CCC(=O)O)cc2)CC1 (configuration not stated) : inactive
CC(C)(C)C(=O)CCc1ccc(Cl)cc1 : inactive

Now turn to the next compound.
[ask] Look at this compound and give its reported activity change, negative = cytotoxicity. CC/C=C\CCOC(=O)c1ccccc1
[reply] inactive

###

Test: qHTS assay to identify small molecule antagonists of the constitutive androstane receptor (CAR) signaling pathway - cell viability counter screen (AID 1224837); also: nearly all actives have a fitted effect of over 45% in size
Conditions: HepG2-CYP2B6-hCAR viability, CellTiter-Fluor, 23 h, co-treated with 50 nM CITCO; series mostly up to 92.4 µM
Method: National Center for Advancing Translational Sciences [NCATS] NIH Chemical Genomics Center [NCGC] U.S. Environmental Protection Agency [EPA] National Institutes of Environmental Health Sciences [NIEHS] National Toxicology Program [NTP] […] A double-stable (hCAR and CYP2B6-2.2kb) transfected cell line, derived from human hepatoma (HepG2) cells, was utilized for the duration of the quantitative high-throughput screens. […] The fluorescence intensity in the plates was then measured using a ViewLux plate reader.
Inconclusive results are not listed. Activity calls are given as the source filed them. Calls follow the shape of the dose curve; as a rule, active = well fitted cell-killing curve with a large enough effect in the repeat runs; inconclusive = weak or mixed curves, or effect the other way; inactive = flat fitted curve, though single readings scatter.
Attribute measured: activity change, negative = cytotoxicity

As a guide, the following entries are already answered.
CCN1CCN(C(=O)N[C@@H](C(=O)N[C@@H]2C(=O)N3C(C(=O)O)=C(CSc4nnnn4C)CS[C@H]23)c2ccc(O)cc2)C(=O)C1=O : inactive
CC(C)C(=O)Nc1cccc(C2CN3CCSC3=N2)c1 (stereo not drawn) : inactive
CC(C)(O)CCCC1=CCC(C=O)CC1 (stereo not drawn) : inactive
C/C=C(\C)C=O : inactive
CCOC(=O)COc1ccc2c(C)c(CCN(CC)CC)c(=O)oc2c1Cl : inactive

[ask] Look at this compound and give its reported activity change, negative = cytotoxicity. CCOCCOCCOC(C)=O
[reply] inactive

[ask] Look at this compound and give its reported activity change, negative = cytotoxicity. CCCC(=O)CC
[reply] inactive

[ask] Look at this compound and give its reported activity change, negative = cytotoxicity. BrCCOc1ccccc1
[reply] inactive

###

Assay: qHTS assay to identify small molecule agonists or antagonists of the thyroid stimulating hormone receptor (TSHR) signaling pathway - wild type cell line counter screen (AID 1259384)
Conditions: HEK293 wild type, cAMP HTRF counter-screen; series mostly up to 92.4 µM
Inconclusive results are not listed. Active and inactive are the calls of the source. The call rests on the fitted dose curve.
Attribute measured: cAMP activity change

O=C(OOC(=O)c1ccccc1)c1ccccc1 : inactive
CN1CCN(C(=O)C2CCCCC2)CC1 : inactive
NS(=O)(=O)c1cc2c(cc1C(F)(F)F)NCNS2(=O)=O : inactive
C/C(Cl)=C/CCl : inactive
COc1ccc2cc(CCC(C)=O)ccc2c1 : inactive
CCC(C)SSC(C)CC (stereo not given) : inactive
O=C[C@@H](O)[C@H](O)[C@H](O)CO : inactive
Clc1cc(Cl)c(Cl)c(Cl)c1Cl : inactive
CCN1CCN(C(=O)N[C@@H](C(=O)N[C@@H]2C(=O)N3[C@@H]2SC(C)(C)[C@H]3C(=O)O)c2ccccc2)C(=O)C1=O : inactive

[ask] Look at this molecule and give its reported cAMP activity change. CCN(CC)CC
[reply] inactive
